Known CC50 of a selection of compounds
# Experimental details: in vitro
# Test parameters: dog

{"Compound": "Cc1[nH]c2ccc(-c3nnc(SCC(=O)N4CCCC4)o3)cc2c1C", "CC50": "> 100 µM"}
{"Compound": "COc1cc2c(O)c3c(c(-c4ccc5c(c4)OCO5)c2cc1OC)C(=O)OC3", "CC50": "0.67 µM"}
{"Compound": "CN(c1nc(-c2ccc(Br)cc2)cs1)C1CCS(=O)(=O)C1 (stereo not drawn)", "CC50": "26.8 µM"}

----------
# Tested on: influenza A virus (FluA)
# Experimental details: microbe, parasite or virus in culture
# Test parameters: read-out: IC50 (Detroit)
pIC50: −log10 of the molar value.

{"Compound": "CN(c1nc(-c2ccc(Br)cc2)cs1)C1CCS(=O)(=O)C1 (stereo not shown)", "pIC50": 5.68}
